test system: NF-κB pathway; assay: TNF-α assay (THP-1 cells differentiated to macrophages with IFN-γ, NF-κB pathway activated with LPS; ELISA); assay type: cell-based, Human; conditions: Homo sapiens, THP-1, THP-1 macrophages, compound 30 min, 50 ng/mL LPS 3 hours
pIC50: −log10 of the molar value.
pIC50 by entry:

Examples from the recorded data:
{"Compound": "Cc1cc(C)c(-n2cc3sc(N[C@H]4COC[C@H]4F)nc3n2)c(O)c1 [Example 144]", "Measured Endpoint": "pIC50", "Recorded Value": "< 4.52"}
{"Compound": "Cc1cc(C)c(-n2cc3sc(NC4CCN(S(C)(=O)=O)C4)nc3n2)c(O)c1 (stereo not drawn) [Example 100]", "Measured Endpoint": "pIC50", "Recorded Value": "< 4.52"}
{"Compound": "CCN1C[C@H](F)C[C@@H](Nc2nc3nn(-c4c(C)cc(C(F)F)cc4O)cc3s2)C1 [Example 16]", "Measured Endpoint": "pIC50", "Recorded Value": "< 4.52"}
{"Compound": "Cc1cc(O)c(-n2cc3sc(NC[C@@H](C)O)nc3n2)c(C2CC2)c1 [Example 64]", "Measured Endpoint": "pIC50", "Recorded Value": "< 5.00"}
{"Compound": "Cc1cc(F)cc(O)c1-n1cc2sc(N[C@@H]3CCCN(C)C3)nc2n1 [Example 5]", "Measured Endpoint": "pIC50", "Recorded Value": "< 4.52"}

Problem: Fill in: pIC50 of CO[C@H]1CN(C)C[C@@H]1Nc1nc2nn(-c3c(C)cc(C)cc3O)cc2s1 [Example 40] is ___
Result: < 4.52

Problem: Note, next up: Cc1cc(C)c(-n2cc3sc(NCC(C)(F)F)nc3n2)c(O)c1 [Example 139]
Result: < 5.00

Problem: Try Cc1cc(C)c(-n2cc3sc(N[C@H]4C[C@H](F)CN(C)C4)nc3n2)c(O)c1 [Example 180] next.
Result: < 4.52

Problem: Also check Cc1cc(C)c(-n2cc3sc(N[C@@H]4C[C@@H](F)CN(C5CCOC5)C4)nc3n2)c(O)c1 (single isomer, unassigned) [Example 73]
Result: < 4.52

Problem: // next record Cc1cc(C)c(-n2cc3sc(N[C@@H]4CCCN(CC(F)F)C4)nc3n2)c(O)c1 [Example 35]
Result: < 5.00

Problem: Now consider Cc1cc(C)c(-n2cc3sc(NC[C@@H](C)OC(F)F)nc3n2)c(O)c1 [Example 172] and answer again.
Result: < 5.00

Problem: For Cc1cc(C)c(-n2cc3sc(NCCC(C)(C)O)nc3n2)c(O)c1 [Example 55] then?
Result: < 5.00

---

biological target: NLRP3 inflammasome (Homo sapiens, UniProt Q96P20); construct: IL-1beta HTRF; test: IL-1β TR-FRET assay (THP-1 cells differentiated to macrophages with IFN-γ, LPS primed, ATP activated; HTRF); settings: THP-1 macrophages, 50 ng/mL LPS priming, compound 30 min, 20 mM ATP 2 hours
Sequence (Q96P20 whole entry): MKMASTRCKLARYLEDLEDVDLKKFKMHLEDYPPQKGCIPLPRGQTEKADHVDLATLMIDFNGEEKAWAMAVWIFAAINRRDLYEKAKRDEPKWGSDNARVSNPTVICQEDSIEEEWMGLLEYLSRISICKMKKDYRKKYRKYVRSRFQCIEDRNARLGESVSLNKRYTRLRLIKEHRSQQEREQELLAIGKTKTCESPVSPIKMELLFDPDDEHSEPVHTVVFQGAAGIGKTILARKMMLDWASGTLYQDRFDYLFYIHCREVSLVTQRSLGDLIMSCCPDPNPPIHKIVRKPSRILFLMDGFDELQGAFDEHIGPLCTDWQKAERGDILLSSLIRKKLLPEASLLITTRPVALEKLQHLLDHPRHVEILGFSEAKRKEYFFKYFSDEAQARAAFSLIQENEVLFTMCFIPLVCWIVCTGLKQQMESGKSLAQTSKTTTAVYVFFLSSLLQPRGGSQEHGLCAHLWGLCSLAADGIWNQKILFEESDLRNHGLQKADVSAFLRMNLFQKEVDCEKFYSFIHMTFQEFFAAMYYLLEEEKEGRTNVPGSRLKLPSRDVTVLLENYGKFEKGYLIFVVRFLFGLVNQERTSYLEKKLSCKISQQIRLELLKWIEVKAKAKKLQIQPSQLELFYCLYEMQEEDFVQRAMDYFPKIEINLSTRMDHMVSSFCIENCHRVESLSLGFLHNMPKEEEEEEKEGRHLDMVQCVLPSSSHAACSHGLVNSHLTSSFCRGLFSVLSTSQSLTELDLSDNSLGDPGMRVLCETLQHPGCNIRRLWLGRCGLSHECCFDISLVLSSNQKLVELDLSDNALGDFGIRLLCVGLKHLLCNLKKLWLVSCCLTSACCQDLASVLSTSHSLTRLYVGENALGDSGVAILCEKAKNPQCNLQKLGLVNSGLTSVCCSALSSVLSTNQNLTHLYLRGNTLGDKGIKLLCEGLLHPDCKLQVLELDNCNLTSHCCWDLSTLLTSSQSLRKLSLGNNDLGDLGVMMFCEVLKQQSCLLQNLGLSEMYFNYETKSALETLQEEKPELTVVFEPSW
Measured Endpoint: IC50 (nM)

Please review the following examples before continuing.
{"Compound": "CCNc1nc2nn(-c3c(C)cc(C)cc3O)cc2s1", "Target Under Test": "NLRP3 inflammasome (Homo sapiens, UniProt Q96P20)", "Unit Name": "nM", "IC50": 340}
{"Compound": "Cc1cc(C)c(-n2cc3sc(N[C@@H]4CCCN(C(=O)OCC(Cl)(Cl)Cl)C4)nc3n2)c(O)c1", "Target Under Test": "NLRP3 inflammasome (Homo sapiens, UniProt Q96P20)", "Unit Name": "nM", "IC50": 620}

P: COCC(O)CNc1nc2nn(-c3c(C)cc(C)cc3O)cc2s1 (centres unmarked)
Q: Cc1cc(C)c(-n2cc3sc(NC4CCN(C(=O)OCc5ccccc5)C4)nc3n2)c(O)c1 (centres unmarked)
R: COc1cc(C)c(-n2cc3sc(N[C@@H]4C[C@@H](F)CN(C5CC5)C4)nc3n2)c(O)c1
S: Cc1cc(C)c(-n2cc3sc(N[C@H]4CCN(C)C(=O)C4)nc3n2)c(O)c1
T: COCCN(C)c1nc2nn(-c3c(C)cc(C)cc3O)cc2s1
Problem: Exam item: list the entries in increasing order of IC50. State the ranking by listing the labels in the requested order.
Result: R, Q, P, T, S

I: Cc1cc(C)c(-n2cc3sc(NCC(O)c4ccccn4)nc3n2)c(O)c1 (centres unmarked)
II: Cc1cc(C)c(-n2cc3sc(N[C@@H]4CCOC4)nc3n2)c(O)c1
Problem: Lab notebook, comparison: I versus II , higher IC50 goes to which? Mark your answer with the label of the selected entry.
Result: I

A: Cc1cc(C)c(-n2cc3sc(N[C@H]4COC[C@@H]4F)nc3n2)c(O)c1 (single isomer, unassigned) [Example 143]
B: Cc1cc(C)c(-n2cc3sc(NC4CCN(C(=O)CC(F)F)C4)nc3n2)c(O)c1 (centres unmarked)
C: Cc1cc(C)c(-n2cc3sc(N[C@@H]4CCN(CC(F)F)C4)nc3n2)c(O)c1
Problem: Order the entries by their reported IC50, beginning at the minimum. Please list each label once, in the requested order.
Result: B, A, C
(B: 220 nM, A: 430 nM, C: 950 nM)
